assay system: human bradykinin 1 receptor (B1R) (Homo sapiens, UniProt P46663)
Construct: expressed in transfected cells; host or cells: CHO K1 cells
Sequence (P46663 whole entry): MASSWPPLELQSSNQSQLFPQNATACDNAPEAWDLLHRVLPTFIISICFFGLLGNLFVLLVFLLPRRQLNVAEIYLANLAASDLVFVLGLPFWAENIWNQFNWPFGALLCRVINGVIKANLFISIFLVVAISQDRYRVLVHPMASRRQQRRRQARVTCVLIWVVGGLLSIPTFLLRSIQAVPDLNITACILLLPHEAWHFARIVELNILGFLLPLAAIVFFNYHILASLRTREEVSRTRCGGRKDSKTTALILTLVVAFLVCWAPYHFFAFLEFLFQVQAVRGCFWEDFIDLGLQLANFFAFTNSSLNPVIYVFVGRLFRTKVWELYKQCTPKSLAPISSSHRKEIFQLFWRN
experimental details: Functional investigation on the human bradykinin 1 receptor (B1R), Ca2+ FLIPR assay in CHO K1 hB1R cells
Format: cell-based
condition summary: B1R antagonism human; test substance 10 μM; Ca2+ FLIPR, CHO K1 hB1R cells
Classify as follows. Reported B1R Ant. h [10 μM] % Inhibition greater than or equal to 70%: Y. Reported B1R Ant. h [10 μM] % Inhibition below: N.

molecule="CN(C)C(c1cccc(F)c1)C1CCC(CNC(=O)COC2CCN(S(=O)(=O)c3ccccc3)CC2)CC1 (centres unmarked)" assay_system="human bradykinin 1 receptor (B1R) (Homo sapiens, UniProt P46663)" classification=N
molecule="COc1cc(C)c(S(=O)(=O)N2CCC(OCC(=O)NCC3CCC(C(c4ccc(Cl)cc4)N(C)C)CC3)C2)c(C)c1C (centres unmarked)" assay_system="human bradykinin 1 receptor (B1R) (Homo sapiens, UniProt P46663)" classification=N
molecule="COc1cc(C)c(S(=O)(=O)N2CCC(OCC(=O)NCCC3CCC(C(c4cccc(F)c4)N(C)C)CC3)C2)c(C)c1C (centres unmarked)" assay_system="human bradykinin 1 receptor (B1R) (Homo sapiens, UniProt P46663)" classification=N
molecule="CN(C)C(CCc1ccccc1)C1CCC(CNC(=O)COC2CCN(S(=O)(=O)c3ccc(F)cc3)C2)CC1 (centres unmarked)" assay_system="human bradykinin 1 receptor (B1R) (Homo sapiens, UniProt P46663)" classification=N
molecule="CN(C)C(c1ccccc1)C1CCC(NC(=O)COC2CCN(S(=O)(=O)c3ccc(F)cc3)C2)CC1 (centres unmarked)" assay_system="human bradykinin 1 receptor (B1R) (Homo sapiens, UniProt P46663)" classification=N
molecule="COc1ccc(S(=O)(=O)N2CCCCC2COCC(=O)NCCC2CCC(C(c3cccc(F)c3)N(C)C)CC2)c(OC)c1 (centres unmarked)" assay_system="human bradykinin 1 receptor (B1R) (Homo sapiens, UniProt P46663)" classification=N
molecule="COc1cc(C)c(S(=O)(=O)N(C)CCOCC(=O)NCC2CCC(C(c3cccc(F)c3)N(C)C)CC2)c(C)c1 (centres unmarked)" assay_system="human bradykinin 1 receptor (B1R) (Homo sapiens, UniProt P46663)" classification=Y
molecule="CN(C)C(c1ccc(F)cc1)C1CCC(CCNC(=O)COCCN(C)S(=O)(=O)c2ccc(Cl)cc2Cl)CC1 (centres unmarked)" assay_system="human bradykinin 1 receptor (B1R) (Homo sapiens, UniProt P46663)" classification=Y
molecule="CN(C)C(c1ccccc1)C1CCC(NC(=O)COC2CCN(S(=O)(=O)c3ccccc3)CC2)CC1 (centres unmarked)" assay_system="human bradykinin 1 receptor (B1R) (Homo sapiens, UniProt P46663)" classification=N
molecule="COc1cc(C)c(S(=O)(=O)N2CCC(OCC(=O)NCC3CCC(C(c4ccc(Cl)cc4)N(C)C)CC3)C2)c(C)c1 (centres unmarked)" assay_system="human bradykinin 1 receptor (B1R) (Homo sapiens, UniProt P46663)" classification=Y
molecule="COc1ccc(S(=O)(=O)N2CCC(OCC(=O)NCCC3CCC(C(c4ccc(F)cc4)N(C)C)CC3)C2)cc1OC (centres unmarked)" assay_system="human bradykinin 1 receptor (B1R) (Homo sapiens, UniProt P46663)" classification=N
molecule="CN(C)C(c1ccc(F)cc1)C1CCC(NC(=O)COCCN2CCN(S(=O)(=O)c3ccccc3)CC2)CC1 (centres unmarked)" assay_system="human bradykinin 1 receptor (B1R) (Homo sapiens, UniProt P46663)" classification=N
